target: Human DYRK1B (Homo sapiens, UniProt Q9Y463); construct: purchased Invitrogen PR8350B (former PV4649); assay: DYRK1B Kinase TR-FRET (IMAP-Tb) Assay; type: biochemical; conditions: TR-FRET (IMAP-Tb); ATP 70 μM; 37° C., 60 minutes; average of multiple runs; read-out: Enzyme IC50 (μM) DYRK1B
Sequence (Q9Y463 whole entry): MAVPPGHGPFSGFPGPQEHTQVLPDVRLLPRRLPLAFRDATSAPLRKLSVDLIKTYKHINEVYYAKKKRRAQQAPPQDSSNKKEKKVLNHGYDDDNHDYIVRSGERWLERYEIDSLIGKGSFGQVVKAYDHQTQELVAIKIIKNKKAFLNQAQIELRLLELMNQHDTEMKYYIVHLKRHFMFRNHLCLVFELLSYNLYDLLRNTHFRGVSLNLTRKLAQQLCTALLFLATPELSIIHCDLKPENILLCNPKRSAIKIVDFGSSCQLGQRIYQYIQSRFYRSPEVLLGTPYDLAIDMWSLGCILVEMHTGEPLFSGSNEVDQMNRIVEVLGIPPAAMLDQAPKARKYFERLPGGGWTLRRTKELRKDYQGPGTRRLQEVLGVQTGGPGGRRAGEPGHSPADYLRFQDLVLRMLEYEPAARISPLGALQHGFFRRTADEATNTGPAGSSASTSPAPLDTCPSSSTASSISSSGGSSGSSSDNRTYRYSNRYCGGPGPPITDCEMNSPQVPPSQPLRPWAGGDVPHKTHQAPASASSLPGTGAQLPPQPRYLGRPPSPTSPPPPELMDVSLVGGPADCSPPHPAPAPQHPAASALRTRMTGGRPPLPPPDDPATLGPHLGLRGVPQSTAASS
Counter-ions that a name gives are not always drawn.
recorded_endpoint: IC50 (µM)
// note: answer is a bare numeric in µM

Request: Lab request: please report IC50 under test system Human DYRK1B (Homo sapiens, UniProt Q9Y463) for COc1ccc2cc(C(=O)Nc3cc(C(=O)NC(CCN)c4ccccc4)ccc3Cl)c(=O)[nH]c2n1 (centres unmarked)
Response: 0.0527

Request: Recall the recorded IC50 for COc1cc2[nH]c(=O)c(C(=O)Nc3cc(C(=O)NC(CN)c4ccccc4)ccc3C)cc2cn1 (centres unmarked) [Example 55, hydrochloride] with Human DYRK1B (Homo sapiens, UniProt Q9Y463) and state it.
Response: 0.0915

Request: Identify the measured IC50 of "COc1cc2[nH]c(=O)c(C(=O)Nc3cc(C(=O)NCc4cccs4)ccc3C)cc2cn1" for Human DYRK1B (Homo sapiens, UniProt Q9Y463).
Response: 0.917

Request: State its IC50 on Human DYRK1B (Homo sapiens, UniProt Q9Y463): COc1cc2[nH]c(=O)c(C(=O)Nc3cc(C(=O)NC(CCN)c4ccccc4)ccc3Cl)cc2cn1 (centres unmarked) [Example 69, hydrochloride]
Response: 0.0137

Request: API: value(readout= IC50, system= Human DYRK1B (Homo sapiens, UniProt Q9Y463), query= "COc1cc2[nH]c(=O)c(C(=O)Nc3cc(C(=O)NCc4ccsc4)ccc3C)cc2cn1" )
Response: 0.424
